target_desc: parathyroid cell calcium receptor (Bos taurus, UniProt P35384)
Sequence (P35384 20-1085): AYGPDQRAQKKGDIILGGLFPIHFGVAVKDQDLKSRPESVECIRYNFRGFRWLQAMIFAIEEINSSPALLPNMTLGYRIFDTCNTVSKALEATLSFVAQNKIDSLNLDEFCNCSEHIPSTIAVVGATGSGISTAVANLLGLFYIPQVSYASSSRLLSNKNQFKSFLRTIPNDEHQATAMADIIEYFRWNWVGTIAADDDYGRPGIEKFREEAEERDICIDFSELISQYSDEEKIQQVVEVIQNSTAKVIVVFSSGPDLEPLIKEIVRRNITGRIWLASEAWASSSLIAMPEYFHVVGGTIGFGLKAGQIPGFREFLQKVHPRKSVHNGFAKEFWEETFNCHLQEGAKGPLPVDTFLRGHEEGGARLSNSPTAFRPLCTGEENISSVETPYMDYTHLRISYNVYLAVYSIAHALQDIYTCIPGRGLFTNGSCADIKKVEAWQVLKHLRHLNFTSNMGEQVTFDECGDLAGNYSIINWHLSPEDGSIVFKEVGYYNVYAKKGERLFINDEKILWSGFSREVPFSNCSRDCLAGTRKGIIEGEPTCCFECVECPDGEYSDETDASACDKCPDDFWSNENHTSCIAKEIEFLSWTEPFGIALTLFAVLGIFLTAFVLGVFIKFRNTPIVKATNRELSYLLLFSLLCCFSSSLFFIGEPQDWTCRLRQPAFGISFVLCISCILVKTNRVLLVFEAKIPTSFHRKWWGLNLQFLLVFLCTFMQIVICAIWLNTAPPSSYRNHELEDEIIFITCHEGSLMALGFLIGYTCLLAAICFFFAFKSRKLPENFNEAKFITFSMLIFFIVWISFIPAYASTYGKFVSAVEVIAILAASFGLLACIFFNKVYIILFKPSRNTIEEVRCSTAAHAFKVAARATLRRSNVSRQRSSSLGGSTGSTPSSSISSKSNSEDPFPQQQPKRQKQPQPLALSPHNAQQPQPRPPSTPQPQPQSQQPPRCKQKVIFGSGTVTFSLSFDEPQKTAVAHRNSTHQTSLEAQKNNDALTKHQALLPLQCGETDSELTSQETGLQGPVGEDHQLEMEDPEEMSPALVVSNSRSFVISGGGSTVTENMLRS
procedure_summary: cell-based
Format: cell-based
study_conditions: Table 8; increases in intracellular calcium, fura-2 loaded cells
quantity_name: EC50 (µM)
Respond with the bare value in µM.

Examples from the recorded data:
Can you share its EC50? I mean this compound: COc1cccc([C@@H](C)N[C@H](C)c2cccc3ccccc23)c1 [Compound 14Y]
0.38

Now the same for CC(N[C@H](C)c1ccccc1)c1cccc2ccccc12 (some centres unmarked)
1.8

Others:
Can you share its EC50? I mean this compound: CC(C)c1ccc([C@@H](C)N[C@H](C)c2cccc3ccccc23)cc1 [Compound 14L]
0.26

----------
target_desc: parathyroid cell calcium receptor (Bos taurus, UniProt P35384)
procedure_summary: cell-based
Format: cell-based
study_conditions: Table 7; increases in intracellular calcium, fura-2 loaded cells
quantity_name: EC50

Can you share its EC50? I mean this molecule: CC(NCCCc1ccccc1)C1CCCCC1 (stereo not shown) [Compound 20V]
> 100 µM

Cited source: patent US5962314A
